Reported switch fluorescence ratio values for a set of sequences
system: ATP; assay: switch fluorescence ratio, 500 uM ATP over buffer (Cy3 cluster intensity, sum of 5 cycles each) (fold (ratio)); higher = stronger signal-on switching upon ATP binding; sequences stand for … in TCGTCGGCAGCGTCAGATGTGTATAAGAGACAGTTTTTTTTTTTTTTTTTTTTTTTTT…TC; conditions: aptamer strand: ATP DNA aptamer (quencher-CACCTGGGGGAGTATTGCGGAGGAAGG + anchor), 100 nM annealed; ATP concentration: 500 uM;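 further: ATP exposure 15 min at 22 °C before imaging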
Would you mind answering with just the numeric figure?

These recorded examples may help you get a feel for the data.
INSERT INTO assay_data (ordered_residues, system, quantity, reported) VALUES
  ('TGAGGTACGG', 'ATP', 'switch fluorescence ratio', 1.01),
  ('TTCAGGGGGA', 'ATP', 'switch fluorescence ratio', 1.02),
  ('TCATCAGTCT', 'ATP', 'switch fluorescence ratio', 0.995),
  ('AAAACGCAGG', 'ATP', 'switch fluorescence ratio', 1.02),
  ('GCTGAAGGTT', 'ATP', 'switch fluorescence ratio', 1.25),
  ('TCCTTGGTCG', 'ATP', 'switch fluorescence ratio', 1.04),
  ('AACGCCGCAT', 'ATP', 'switch fluorescence ratio', 1.86),
  ('CCTAGGGAAG', 'ATP', 'switch fluorescence ratio', 0.997),
  ('GATTTGGACG', 'ATP', 'switch fluorescence ratio', 1.01),
  ('GGGGGGCCTG', 'ATP', 'switch fluorescence ratio', 0.982);

May I ask what switch fluorescence ratio has been recorded for `GTTTATATGT` ?
1.01

Same thing, different sequence: `CACGTGTGTG`
0.961

Same thing, different sequence: `AATCGAGTTG`
0.985

Same thing, different sequence: `TTTAGCCGGT`
0.995

Same thing, different sequence: `TCGAAACGGG`
1.14

Same thing, different sequence: `TGCTGAGTTT`
1.01

Same thing, different sequence: `AAGGGGAAAA`
0.983

Same thing, different sequence: `CGGGCTCAAC`
1.03

Same thing, different sequence: `TTACATGTTG`
1.04

Same thing, different sequence: `CTAACAGCGA`
1.3
